meta.source: the RNAGym collection of RNA variant scans (doi:10.1073/pnas.2313332121)

B1: TPR t1 (parent)
chain: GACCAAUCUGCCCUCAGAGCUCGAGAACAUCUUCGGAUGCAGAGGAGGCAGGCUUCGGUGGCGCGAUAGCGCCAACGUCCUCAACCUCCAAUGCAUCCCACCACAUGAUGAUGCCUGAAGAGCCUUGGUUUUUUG

- Variants of: B1
- ASSAY SUMMARY: polymerase ribozyme fitness, log enrichment relative to wild type (log ratio); higher = more active; in vitro selection for triplet polymerase activity
Label Criterion met when polymerase ribozyme fitness (log ratio) >= -3; otherwise Criterion not met.

mutation_name="U81C G93A C123A" category="Criterion met"
mutation_name="A5G U54C G69U A118G U129A" category="Criterion met"
mutation_name="G10A C64U U129G" category="Criterion met"
mutation_name="C62U C86U" category="Criterion met"
mutation_name="G45U C98A" category="Criterion not met"
mutation_name="C11G A50C" category="Criterion met"
mutation_name="A83U C114A" category="Criterion met"
mutation_name="G51A C62U G113A" category="Criterion not met"
mutation_name="C72G G93A C101A A111U" category="Criterion not met"
mutation_name="G36A C97G U112G C115U" category="Criterion not met"
mutation_name="A6U G58A U81A G110A A118C" category="Criterion met"
mutation_name="U14C U54G C62U" category="Criterion met"
mutation_name="C70G C85A C123U U130A U133C" category="Criterion not met"
mutation_name="C56U C70U" category="Criterion met"
mutation_name="G61A G93A C114G" category="Criterion met"
mutation_name="A83G C86G G127U U132C" category="Criterion met"
mutation_name="G39A G71A C82U U87C U132C" category="Criterion met"
mutation_name="G61U C115G G117A G122U U126C" category="Criterion not met"
mutation_name="C12U C34G G127A" category="Criterion not met"
mutation_name="C70A C79A" category="Criterion not met"
mutation_name="U7A U9C" category="Criterion met"
mutation_name="G19C C22A C53G U59G C123A" category="Criterion not met"
mutation_name="A5G G57A G69C" category="Criterion met"
mutation_name="G17C C72U C88A" category="Criterion not met"
mutation_name="G61U U96A" category="Criterion met"
mutation_name="C20G A37U C62G C70U U112A" category="Criterion not met"
mutation_name="A46U G93A A119G U132A" category="Criterion met"
mutation_name="A18U A50U C99G A100C A108U C124G" category="Criterion not met"
mutation_name="C62A G77C U87A" category="Criterion met"
mutation_name="U54C G60U G69U U133G" category="Criterion met"
mutation_name="C49U G71A U130C" category="Criterion met"
mutation_name="C70U G77C" category="Criterion met"
mutation_name="C22A G48A G57U C70A A83G A91U C115A" category="Criterion not met"
mutation_name="C15U A27G U32A A46C C82A G117U" category="Criterion not met"
mutation_name="U7G G10A A41G C79A C80A C115A" category="Criterion not met"
mutation_name="C12A U55A G122A U126A" category="Criterion not met"
mutation_name="G47U G60U" category="Criterion met"
mutation_name="A24G C88G C123A U129A" category="Criterion not met"
mutation_name="A6G G51A A75U C88G U92C" category="Criterion not met"
mutation_name="C115A G122A" category="Criterion met"
mutation_name="C64U C114A" category="Criterion met"
mutation_name="G63C C80U" category="Criterion met"
mutation_name="A6G U7G A37G G48U" category="Criterion met"
mutation_name="A29G C73A C76A" category="Criterion not met"
mutation_name="C70G A84G" category="Criterion not met"
